assay: Pharmacokinetic experiment in rat (IV and PO, plasma LC-MS/MS); details: SD, rat, plasma, iv, 2 mg/kg
measured.endpoint: clearance (mL/min/kg)

>>> df
                                smiles_repr  measured_endpoint  observed_measurement
0  Cc1ccc(C(=O)Nc2ccc(CN3CCN(C)CC3)c(C(F)(F)F)c2)cc1C#Cc1cnc2cccnn12          clearance                  22.2

---

biological target: UniProt P11362; assay: Inhibition of receptor tyrosine kinase activity at molecular level (ELISA, Poly(Glu,Tyr)4:1 substrate phosphorylation); format: biochemical; conditions: 10 nM compound; average of two independent experiments
measured.endpoint: 10 nM inhibition ratio FGFR1

In [3]: df
Out[3]:
                                smiles_repr             measured_endpoint  observed_measurement
0  COc1ccc(C#Cc2cccnc2N)cc1C(=O)Nc1ccc(CN2CCN(C)CC2)c(C(F)(F)F)c1  10 nM inhibition ratio FGFR1                  59.9
1  CN1CCN(Cc2ccc(NC(=O)c3ccc(C#N)c(C#Cc4cccnc4N)c3)cc2C(F)(F)F)CC1  10 nM inhibition ratio FGFR1                  45.1
2  CN1CCN(Cc2ccc(NC(=O)c3cccc(C#Cc4cccnc4N)c3)cc2C(F)(F)F)CC1  10 nM inhibition ratio FGFR1                  74.7
3  COc1ccc(C(=O)Nc2ccc(CN3CCN(C)CC3)c(C(F)(F)F)c2)cc1C#Cc1cccnc1N  10 nM inhibition ratio FGFR1                  51.1
4  CN1CCN(Cc2ccc(NC(=O)c3cc(Cl)cc(C#Cc4cccnc4N)c3)cc2C(F)(F)F)CC1  10 nM inhibition ratio FGFR1                  60.7
5  CN1CCN(Cc2ccc(NC(=O)c3ccc(Cl)c(C#Cc4cc(N(C)C)cnc4N)c3)cc2C(F)(F)F)CC1  10 nM inhibition ratio FGFR1                  49.9
6  CN1CCN(Cc2ccc(NC(=O)c3ccc(Cl)c(C#Cc4cc(C#N)cnc4N)c3)cc2C(F)(F)F)CC1  10 nM inhibition ratio FGFR1                  44.3
7  Nc1ncccc1C#Cc1cc(C(=O)Nc2ccc(CN3CCNCC3)c(C(F)(F)F)c2)ccc1Cl  10 nM inhibition ratio FGFR1                  67.9

---

target: FGFR1 (Homo sapiens); experiment: Inhibition of receptor tyrosine kinase activity at molecular level (ELISA, Poly(Glu,Tyr)4:1 substrate phosphorylation); type: biochemical; details: 10 nM compound; average of two independent experiments
Sequence (P11362 22-822): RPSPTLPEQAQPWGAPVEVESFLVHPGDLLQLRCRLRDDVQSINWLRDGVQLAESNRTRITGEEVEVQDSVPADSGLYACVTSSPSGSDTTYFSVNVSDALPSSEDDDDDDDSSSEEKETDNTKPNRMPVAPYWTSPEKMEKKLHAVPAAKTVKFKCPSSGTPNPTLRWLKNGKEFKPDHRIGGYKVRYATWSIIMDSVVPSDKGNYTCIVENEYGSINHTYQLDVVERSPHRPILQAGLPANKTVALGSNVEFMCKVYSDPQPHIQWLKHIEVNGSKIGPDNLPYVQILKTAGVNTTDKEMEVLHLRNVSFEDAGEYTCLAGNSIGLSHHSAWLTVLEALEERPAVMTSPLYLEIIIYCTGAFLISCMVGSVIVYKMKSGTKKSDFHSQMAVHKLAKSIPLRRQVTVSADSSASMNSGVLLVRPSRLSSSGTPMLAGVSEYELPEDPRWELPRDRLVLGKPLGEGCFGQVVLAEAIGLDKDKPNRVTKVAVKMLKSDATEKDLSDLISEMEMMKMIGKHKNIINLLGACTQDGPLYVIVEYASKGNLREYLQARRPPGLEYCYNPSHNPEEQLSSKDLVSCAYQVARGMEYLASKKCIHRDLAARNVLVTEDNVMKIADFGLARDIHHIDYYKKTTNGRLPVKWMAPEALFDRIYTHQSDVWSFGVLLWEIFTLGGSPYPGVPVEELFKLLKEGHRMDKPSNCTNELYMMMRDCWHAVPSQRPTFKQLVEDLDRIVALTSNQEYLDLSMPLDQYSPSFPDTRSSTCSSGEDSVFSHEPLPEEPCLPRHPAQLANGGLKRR
Listed here: items and their measured 10 nM inhibition ratio FGFR1.
measured.endpoint: 10 nM inhibition ratio FGFR1

                                   compound  observed_measurement
0  CNCc1cnc(N)c(C#Cc2cc(C(=O)Nc3ccc(CN4CCN(C)CC4)c(C(F)(F)F)c3)ccc2Cl)c1 [Example 33]                  49.8
1  CN1CCN(Cc2ccc(NC(=O)c3ccc(Cl)c(C#Cc4cc(COC(F)(F)F)cnc4N)c3)cc2C(F)(F)F)CC1 [Example 32]                  66.3
2  CN1CCN(Cc2ccc(NC(=O)c3ccc(Cl)c(C#Cc4cc(OC5CC5)cnc4N)c3)cc2C(F)(F)F)CC1 [Example 24]                  64.1
3  CN1CCN(Cc2ccc(NC(=O)c3cccc(C#Cc4cc(NC(=O)C5CC5)cnc4N)c3)cc2C(F)(F)F)CC1 [Example 38]                  51.8
4  CN1CCN(Cc2ccc(NC(=O)c3ccc(Cl)c(C#Cc4cc(C5CC5)cnc4N)c3)cc2C(F)(F)F)CC1 [Example 19]                  59.3
5  Cc1cc(C#Cc2cccnc2N)cc(C(=O)Nc2ccc(CN3CCN(C)CC3)c(C(F)(F)F)c2)c1 [Example 12]                  75.1
6  CN(C)Cc1cnc(N)c(C#Cc2cc(C(=O)Nc3ccc(CN4CCN(C)CC4)c(C(F)(F)F)c3)ccc2Cl)c1 [Example 34]                  44.3

---

target: RET (Homo sapiens); experiment: Inhibition of receptor tyrosine kinase activity at molecular level (ELISA, Poly(Glu,Tyr)4:1 substrate phosphorylation); assay type: biochemical; settings: 10 nM compound; average of two independent experiments
Sequence (P07949 29-1114): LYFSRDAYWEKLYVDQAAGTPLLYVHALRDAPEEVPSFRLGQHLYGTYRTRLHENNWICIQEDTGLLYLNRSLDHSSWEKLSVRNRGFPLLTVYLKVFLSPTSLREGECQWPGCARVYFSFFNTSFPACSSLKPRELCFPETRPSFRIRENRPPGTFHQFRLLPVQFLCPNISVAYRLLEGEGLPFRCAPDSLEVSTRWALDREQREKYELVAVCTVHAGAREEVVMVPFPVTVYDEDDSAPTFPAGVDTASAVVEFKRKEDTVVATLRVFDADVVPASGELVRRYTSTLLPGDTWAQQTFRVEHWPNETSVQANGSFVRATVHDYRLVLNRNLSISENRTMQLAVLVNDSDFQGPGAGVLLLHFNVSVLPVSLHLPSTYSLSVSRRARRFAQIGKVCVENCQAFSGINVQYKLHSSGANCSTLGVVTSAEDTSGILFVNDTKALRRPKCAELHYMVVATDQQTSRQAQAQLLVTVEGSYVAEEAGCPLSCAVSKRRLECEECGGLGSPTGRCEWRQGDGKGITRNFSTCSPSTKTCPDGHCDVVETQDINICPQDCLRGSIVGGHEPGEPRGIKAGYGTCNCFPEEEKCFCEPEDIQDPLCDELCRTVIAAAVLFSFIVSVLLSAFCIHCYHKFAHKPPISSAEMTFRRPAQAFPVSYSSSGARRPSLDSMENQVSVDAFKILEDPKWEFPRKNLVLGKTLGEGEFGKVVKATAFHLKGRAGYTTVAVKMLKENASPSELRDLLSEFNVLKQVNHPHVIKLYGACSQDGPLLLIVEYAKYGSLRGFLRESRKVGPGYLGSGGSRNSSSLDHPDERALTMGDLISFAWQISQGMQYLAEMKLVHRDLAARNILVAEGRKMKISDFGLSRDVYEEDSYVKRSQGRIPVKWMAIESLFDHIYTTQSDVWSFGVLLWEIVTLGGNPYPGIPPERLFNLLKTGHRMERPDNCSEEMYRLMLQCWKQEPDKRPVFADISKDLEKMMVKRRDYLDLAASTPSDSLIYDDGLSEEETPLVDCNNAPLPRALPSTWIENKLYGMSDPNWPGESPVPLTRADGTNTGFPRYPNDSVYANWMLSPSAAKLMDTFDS
Decide by 10 nM inhibition ratio RET: equal to or exceeding 60 means Condition met, less means Condition not met.

In [3]: df
Out[3]:
                                smiles_repr         test_system              group
0  CN1CCN(Cc2ccc(NC(=O)c3cccc(C#Cc4nc(F)cnc4N)c3)cc2C(F)(F)F)CC1  RET (Homo sapiens)      Condition met
1  CN(C)Cc1cnc(N)c(C#Cc2cc(C(=O)Nc3ccc(CN4CCN(C)CC4)c(C(F)(F)F)c3)ccc2Cl)c1  RET (Homo sapiens)  Condition not met
2  CC(C)(C)OC(=O)N1CCN(Cc2ccc(NC(=O)c3ccc(Cl)c(C#Cc4cccnc4N)c3)cc2C(F)(F)F)CC1  RET (Homo sapiens)  Condition not met
3  COCc1cnc(N)c(C#Cc2cc(C(=O)Nc3ccc(CN4CCN(C)CC4)c(C(F)(F)F)c3)ccc2Cl)c1  RET (Homo sapiens)      Condition met
4  CNc1cnc(N)c(C#Cc2cc(C(=O)Nc3ccc(CN4CCN(C)CC4)c(C(F)(F)F)c3)ccc2Cl)c1  RET (Homo sapiens)  Condition not met
5  CN1CCN(Cc2ccc(NC(=O)c3ccc(Cl)c(C#Cc4cc(C#N)cnc4N)c3)cc2C(F)(F)F)CC1  RET (Homo sapiens)  Condition not met

---

experiment: Pharmacokinetic experiment in rat (IV and PO, plasma LC-MS/MS); conditions: SD, rat, plasma, po, 10 mg/kg
measured.endpoint: Cmax (ng/mL)

>>> df
                                smiles_repr  value_unit  observed_measurement
0  Cc1ccc(C(=O)Nc2ccc(CN3CCN(C)CC3)c(C(F)(F)F)c2)cc1C#Cc1cnc2cccnn12       ng/mL                   241

---

target: UniProt:P07949; assay: Inhibition of receptor tyrosine kinase activity at molecular level (ELISA, Poly(Glu,Tyr)4:1 substrate phosphorylation); format: biochemical; conditions: 10 nM compound; average of two independent experiments
Give condition met when the value for 10 nM inhibition ratio RET is at least 90. Give condition not met when it is less.

                                smiles_repr              group
0  CN1CCN(Cc2ccc(NC(=O)c3cc(C#Cc4cccnc4N)ccc3F)cc2C(F)(F)F)CC1  condition not met
1  CC(=O)Nc1cnc(N)c(C#Cc2cccc(C(=O)Nc3ccc(CN4CCN(C)CC4)c(C(F)(F)F)c3)c2)c1  condition not met
2  CN1CCN(Cc2ccc(NC(=O)c3ccc(Cl)c(C#Cc4nccnc4N)c3)cc2C(F)(F)F)CC1      condition met
3  CNCc1cnc(N)c(C#Cc2cc(C(=O)Nc3ccc(CN4CCN(C)CC4)c(C(F)(F)F)c3)ccc2Cl)c1  condition not met
4  CN1CCN(Cc2ccc(NC(=O)c3ccc(Cl)c(C#Cc4cc(OC5COC5)cnc4N)c3)cc2C(F)(F)F)CC1  condition not met

---

target: KDR (Homo sapiens); assay: Inhibition of receptor tyrosine kinase activity at molecular level (ELISA, Poly(Glu,Tyr)4:1 substrate phosphorylation); assay type: biochemical; conditions: 10 nM compound; average of two independent experiments
Sequence (P35968 20-1356): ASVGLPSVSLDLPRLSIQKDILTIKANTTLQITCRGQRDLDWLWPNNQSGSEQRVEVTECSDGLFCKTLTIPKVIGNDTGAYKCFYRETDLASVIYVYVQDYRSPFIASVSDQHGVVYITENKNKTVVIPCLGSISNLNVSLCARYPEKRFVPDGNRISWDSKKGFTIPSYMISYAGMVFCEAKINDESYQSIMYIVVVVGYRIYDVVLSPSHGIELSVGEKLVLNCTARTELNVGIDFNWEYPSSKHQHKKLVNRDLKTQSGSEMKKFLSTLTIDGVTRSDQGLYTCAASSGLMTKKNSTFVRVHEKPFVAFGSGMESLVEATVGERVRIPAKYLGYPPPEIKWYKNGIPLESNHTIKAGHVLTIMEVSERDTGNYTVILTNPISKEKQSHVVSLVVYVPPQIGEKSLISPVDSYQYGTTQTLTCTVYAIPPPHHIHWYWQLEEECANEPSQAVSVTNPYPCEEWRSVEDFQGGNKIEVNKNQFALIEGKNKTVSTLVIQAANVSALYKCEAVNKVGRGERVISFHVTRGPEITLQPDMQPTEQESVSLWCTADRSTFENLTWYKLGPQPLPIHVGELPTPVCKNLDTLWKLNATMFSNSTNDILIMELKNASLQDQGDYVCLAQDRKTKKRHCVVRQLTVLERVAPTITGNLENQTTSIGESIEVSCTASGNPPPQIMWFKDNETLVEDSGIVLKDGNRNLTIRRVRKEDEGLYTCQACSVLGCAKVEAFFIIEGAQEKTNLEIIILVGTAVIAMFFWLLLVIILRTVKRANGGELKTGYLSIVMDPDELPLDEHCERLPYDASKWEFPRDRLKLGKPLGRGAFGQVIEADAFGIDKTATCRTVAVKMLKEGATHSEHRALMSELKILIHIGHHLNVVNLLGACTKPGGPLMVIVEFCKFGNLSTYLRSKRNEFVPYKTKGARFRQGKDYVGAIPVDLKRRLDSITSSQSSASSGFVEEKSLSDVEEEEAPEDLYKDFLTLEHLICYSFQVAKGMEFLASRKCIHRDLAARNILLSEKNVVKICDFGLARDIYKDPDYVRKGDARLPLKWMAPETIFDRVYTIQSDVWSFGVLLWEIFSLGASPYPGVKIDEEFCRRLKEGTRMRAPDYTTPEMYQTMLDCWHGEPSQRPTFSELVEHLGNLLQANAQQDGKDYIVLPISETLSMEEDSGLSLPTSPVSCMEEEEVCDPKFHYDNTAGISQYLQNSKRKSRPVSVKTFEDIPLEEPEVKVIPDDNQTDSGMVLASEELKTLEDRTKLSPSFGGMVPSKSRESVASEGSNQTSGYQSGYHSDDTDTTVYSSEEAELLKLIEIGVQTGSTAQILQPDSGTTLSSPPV
Below, each of the compounds is paired with its reported 10 nM inhibition ratio KDR value.
measured.endpoint: 10 nM inhibition ratio KDR

>>> df
                                   compound  observed_measurement
0  COc1cc(C#Cc2cccnc2N)cc(C(=O)Nc2ccc(CN3CCN(C)CC3)c(C(F)(F)F)c2)c1                  15.1
1  COc1ncccc1C#Cc1cc(C(=O)Nc2ccc(CN3CCN(C)CC3)c(C(F)(F)F)c2)ccc1Cl [HuFGFR148, reference compound]                  18.2
2  CN1CCN(Cc2ccc(NC(=O)c3cccc(C#Cc4nc(F)cnc4N)c3)cc2C(F)(F)F)CC1                  40.8
3  CN1CCN(Cc2ccc(NC(=O)c3cc(F)cc(C#Cc4cccnc4N)c3)cc2C(F)(F)F)CC1                  38.9
4  CN1CCN(Cc2ccc(NC(=O)c3ccc(Cl)c(C#Cc4cc(OC5CC5)cnc4N)c3)cc2C(F)(F)F)CC1                  23.5
5  COc1ccc(C(=O)Nc2ccc(CN3CCN(C)CC3)c(C(F)(F)F)c2)cc1C#Cc1cccnc1N                   4.6
